- MEASUREMENT_DESCRIPTION: self-splicing fitness, log relative to wild type (ln ratio); higher = more splicing; Tetrahymena group I intron in knt gene, E. coli kanamycin selection, DiMSum; sequences stand for … in CUCUCU…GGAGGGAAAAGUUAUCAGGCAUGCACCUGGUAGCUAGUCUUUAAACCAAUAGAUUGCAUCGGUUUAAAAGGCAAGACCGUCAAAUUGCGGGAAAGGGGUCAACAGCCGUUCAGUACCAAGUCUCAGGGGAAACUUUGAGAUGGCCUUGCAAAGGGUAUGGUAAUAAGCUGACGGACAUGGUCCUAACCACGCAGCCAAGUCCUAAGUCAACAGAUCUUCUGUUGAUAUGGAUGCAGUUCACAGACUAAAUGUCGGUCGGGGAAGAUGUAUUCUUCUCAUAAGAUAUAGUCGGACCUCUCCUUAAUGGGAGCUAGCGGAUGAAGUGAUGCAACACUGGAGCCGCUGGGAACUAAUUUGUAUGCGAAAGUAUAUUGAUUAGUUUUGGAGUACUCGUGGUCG;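 further: selection with 25 µg/mL kanamycin versus none on LB agar overnight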
- CONDITION_DESCRIPTION: 37 °C
Each entry below carries its reported self-splicing fitness (ln).
// return a plain number; no unit text

Exam item: Value lookup for self-splicing fitness (ln); key = CAUGAGCAAUAUUACGGGAC
Marked response: -1.95

Exam item: Value lookup for self-splicing fitness (ln); key = GUUGAGCAAUAUUACGGAUG
Marked response: -1.75

Exam item: Value lookup for self-splicing fitness (ln); key = ACGUAGCAAUAUUACGGGUU
Marked response: -2.07

Exam item: Value lookup for self-splicing fitness (ln); key = GAGAAGCAAUAUUACGAAAC
Marked response: -1.71

Exam item: Value lookup for self-splicing fitness (ln); key = ACGAAGCAAUAUUACGACCU
Marked response: 0.126

More entries:
Exam item: Value lookup for self-splicing fitness (ln); key = AACCAGCAAUAUUACGGUCC
Marked response: -0.491

Exam item: Value lookup for self-splicing fitness (ln); key = CCUUAGCAAUAUUACGGUUU
Marked response: -2.42

Exam item: Value lookup for self-splicing fitness (ln); key = AUCGAGCAAUAUUACGAUUA
Marked response: 0.0165

Exam item: Value lookup for self-splicing fitness (ln); key = CUCUAGCAAUAUUACGAUGG
Marked response: -1.91

Exam item: Value lookup for self-splicing fitness (ln); key = GUCCAGCAAUAUUACGAUCA
Marked response: -0.93

Exam item: Value lookup for self-splicing fitness (ln); key = CAACAGCAAUAUUACGUCUU
Marked response: -0.62
